This collection of values is drawn from paper PMC2742655.

test system: P. falciparum W2 strain (chloroquine-resistant); test: Antiplasmodial activity, growth of P. falciparum W2 strain; assay type: cell-based; settings: Plasmodium falciparum, W2, read-out: IC50 W2
endpoint.name: IC50 (nM)
# value in nM; strip the unit string

Input: Value lookup for IC50; key = CCN(CC)CCCC(C)Nc1ccnc2cc(Cl)ccc12 (stereo not shown) [Chloroquine]
Output: 78.1
